# Assay target: T1, TRBP-dsRBD2 (UniProt Q15633-2 139-215)
# T1 sequence: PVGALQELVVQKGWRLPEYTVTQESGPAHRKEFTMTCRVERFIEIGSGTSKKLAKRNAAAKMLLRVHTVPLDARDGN
# Measurement description: EMSA; apparent Kd; nH >2; text says bound; 50 mM sodium cacodylate pH 7.0, 50 mM potassium glutamate, 5% glycerol; EMSA 0.5 pM RNA, 30 min at room temperature, gel 0.25X TBE at 10 C; CD at 10 C with 5-15 uM RNA
# Test conditions: protein: recombinant; label: 5'-32P; hairpin, 16 bp stem, U8 loop
Measure name: Kd

Looking up GUCAGCAGUGCCUUAGUUUUUUUUCUAAGGCACUGCUGAC (structured_RNA) [ds16-octa-U] , I see its Kd listed as > 6 µM
